test system: SK-MEL-28 melanoma; test: NCI tumour cell line growth inhibition, 48 h
Counter-ions that a name gives are not always drawn. Where a SMILES comes first, the peptide text is derived from it. The star is where a group is joined. Tfa = O=C(C(F)(F)F)*
Provide the reported TGI of each item.

Q: Recall the recorded TGI for "CCOC(=O)c1ccc2[nH]c(-c3ccc(S(=O)(=O)F)cc3)cc(=O)c2c1" with SK-MEL-28 melanoma and state it.
Result: > 100 µM

Q: Recall the recorded TGI for "CC(=O)ON(C(C)=O)c1ccc(-c2nc3ccccc3s2)cc1" with SK-MEL-28 melanoma and state it.
Result: > 70.8 µM

Q: Recall the recorded TGI for O=C(O)CC(NC(=O)C(F)(F)F)C(=O)NC(Cc1ccc(O)cc1)C(=O)O (stereo not drawn) (Tfa-Asp-Tyr-OH; configuration not given here) with SK-MEL-28 melanoma and state it.
Result: > 50 µM

Q: Recall the recorded TGI for "C=CCn1c(=O)c2ccccc2[n+]2c(C)c(C(=O)OCC)sc12" with SK-MEL-28 melanoma and state it.
Result: > 100 µM

Q: Recall the recorded TGI for "COc1cccc2c1C(=O)C=CC2=O" with SK-MEL-28 melanoma and state it.
Result: 33.6 µM

Q: Recall the recorded TGI for "COc1ccc(OC)c(/C=N/NC(=O)Cc2csc3nc(-c4ccc(Br)cc4)cn23)c1" with SK-MEL-28 melanoma and state it.
Result: > 100 µM

Q: Recall the recorded TGI for Nc1ncnc2c1ncn2C1OC(COP(=O)(O)O)C(O)C1O (stereo not given) with SK-MEL-28 melanoma and state it.
Result: > 50 µM

Q: Recall the recorded TGI for "O=C(Nc1ccc(Cl)c(Cl)c1)c1cccc(NC2=C(Cl)C(=O)N(Cc3ccccc3)C2=O)c1" with SK-MEL-28 melanoma and state it.
Result: > 100 µM

Q: Recall the recorded TGI for CC1CC(C2=CC=CCS2)=Nc2ccccc2S1 (stereo not given) with SK-MEL-28 melanoma and state it.
Result: > 100 µM

Q: Recall the recorded TGI for "CCCCC[C@H](O)/C=C/[C@@H]1[C@@H](C/C=C\CCCC(=O)O)[C@@H](O)C[C@H]1O" with SK-MEL-28 melanoma and state it.
Result: > 100 µM

====

test system: PC-3 prostate; assay: NCI tumour cell line growth inhibition, 48 h
Provide the reported TGI of each item.

Q: Recall the recorded TGI for "Cc1ccc(-c2nc(C)c(C(=O)Nc3ccc(Cl)cc3)s2)cc1" with PC-3 prostate and state it.
Result: > 100 µM

Q: Recall the recorded TGI for "O=C(OCc1ccccc1CN1CCOCC1)c1cccc(Br)c1" with PC-3 prostate and state it.
Result: > 100 µM

Q: Recall the recorded TGI for "O=C(O)C/C(=C\c1ccco1)C(=O)O" with PC-3 prostate and state it.
Result: > 100 µM

Q: Recall the recorded TGI for Cc1cc2nc(C(C)C(=O)c3ccc(Cl)cc3)c(=O)[nH]c2cc1C (configuration not stated) with PC-3 prostate and state it.
Result: > 100 µM

Q: Recall the recorded TGI for COC(=O)[C@@]12C(=O)C=CC(=O)[C@@H]1C1C(=CC2COC(C)=O)O[C@@H]2OC3(CCCCC3)O[C@H]12 (some centres not stated) with PC-3 prostate and state it.
Result: 25.3 µM

Q: Recall the recorded TGI for "F" with PC-3 prostate and state it.
Result: > 6870 µM

Q: Recall the recorded TGI for "Brc1ccc2[nH]cc(-c3csc(-c4ccccn4)n3)c2c1" with PC-3 prostate and state it.
Result: 51.7 µM

Q: Recall the recorded TGI for "O=S(=O)(O)c1c(Cl)cc(O)c2ncccc12" with PC-3 prostate and state it.
Result: > 100 µM

Q: Recall the recorded TGI for "COc1cc2c[n+](C)c3c4cc(OC)c(OC)cc4c(OC)cc3c2cc1OC" with PC-3 prostate and state it.
Result: 98.9 µM

Q: Recall the recorded TGI for C=C(C)C(=O)O[C@H]1C/C(CO)=C/CCC(=C)C(OC(C)=O)[C@H]2OC(=O)C(=C)[C@H]12 (some centres not stated) with PC-3 prostate and state it.
Result: 58.9 µM

Q: Recall the recorded TGI for "COc1cc(C(=O)/C=C/c2c(C)n([O-])c3ccc(C)cc3[n+]2=O)cc(OC)c1OC" with PC-3 prostate and state it.
Result: > 59.3 µM

Q: Recall the recorded TGI for O=C(Nc1nnc(-c2ccccc2)o1)C(SC(=S)N1CCCCC1)c1ccccc1 (configuration not stated) with PC-3 prostate and state it.
Result: 96.2 µM

Q: Recall the recorded TGI for "Cc1cccc(C(C)C)c1NC(=O)C(=O)CC(=O)c1sc(Nc2ccccc2Cl)nc1C" with PC-3 prostate and state it.
Result: > 100 µM

Q: Recall the recorded TGI for C=CCN1CCC(OC(=O)C(O)(C#CC)C2CCCC2)CC1 (configuration not stated) with PC-3 prostate and state it.
Result: > 100 µM

Q: Recall the recorded TGI for "COc1ccc(-c2cc(-c3cc(Cl)ccc3Cl)nc3n[nH]c(N)c23)cc1" with PC-3 prostate and state it.
Result: > 100 µM

Q: Recall the recorded TGI for "CC(=O)NCCc1c2c(c3nccc4c3c1Nc1ccccc1-4)OCS2" with PC-3 prostate and state it.
Result: 9.33 µM

Q: Recall the recorded TGI for "O=C1c2c(Cl)c(Cl)c(Cl)c(Cl)c2C(=O)N1CCN(c1c(Cl)ssc1=O)c1c(Cl)ssc1=O" with PC-3 prostate and state it.
Result: 56.8 µM

Q: Recall the recorded TGI for "CO/N=C(\C)c1ccc(Nc2c3ccccc3nc3occc23)cc1" with PC-3 prostate and state it.
Result: 49.3 µM

Q: Recall the recorded TGI for "CCOC(=O)c1c2c(c(O)c3ccccc3c(O)n(Cc3ccc(OC)cc3)c1C)C(=O)C=CC2=O" with PC-3 prostate and state it.
Result: > 100 µM

Q: Recall the recorded TGI for "NCCSc1nc2ccccc2s1" with PC-3 prostate and state it.
Result: > 100 µM

Q: Recall the recorded TGI for CCCCCCCC1C(C)c2c([nH]c3ccccc23)C2C(=O)N(c3ccc(OC)cc3)C(=O)C21 (configuration not stated) with PC-3 prostate and state it.
Result: > 10 µM

Q: Recall the recorded TGI for "CC(=O)ON(C(C)=O)c1ccc(-c2nc3ccccc3s2)cc1" with PC-3 prostate and state it.
Result: > 100 µM

====

Provide the reported TGI of each item.
tested on: EKVX NSCLC; experiment: NCI tumour cell line growth inhibition, 48 h
Give just the number in µM; leave the unit off.

Q: Recall the recorded TGI for "COc1cc2c(cc1O)CC[C@@H]1[C@@H]2CC[C@]2(C)[C@@H](NCCN(C)C)CC[C@@H]12" with EKVX NSCLC and state it.
Result: 0.804

Q: Recall the recorded TGI for OC(c1cccc(-n2ccc(C(F)(F)F)n2)c1)c1cnccc1NC1CCCCCC1 (stereo unspecified) with EKVX NSCLC and state it.
Result: 3.16

Q: Recall the recorded TGI for "NCCNc1c2c(c(NCCN)c3c(CO)c[nH]c13)C(=O)c1ccccc1C2=O" with EKVX NSCLC and state it.
Result: 56.2

Q: Recall the recorded TGI for CC(C)/C=C1\CCC(CN2CCCC2)C1=O (stereo unspecified) with EKVX NSCLC and state it.
Result: 40

Q: Recall the recorded TGI for "N/C(=N\N=C/c1ccccc1O)NO" with EKVX NSCLC and state it.
Result: 71.4

====

tested on: HCC-2998 colon; assay: NCI tumour cell line growth inhibition, 48 h
metric: GI50

Q: Data request, read-out GI50, for "CC1(C)N=C(N)N=C(N)N1c1cccc(CCCCc2cccc(S(=O)(=O)F)c2)c1"
Result: 3.17 µM

Q: Data request, read-out GI50, for "Fc1ccc2[nH]cc(-c3nc(-c4c[nH]c5ncccc45)cs3)c2c1"
Result: > 100 µM

Q: Data request, read-out GI50, for "CC(=O)N[C@@H](Cc1ccc(OP(=O)(O)O)cc1)C(=O)N[C@H]1CCC(=O)N2CCC[C@@H](C(=O)NCc3ccc(Cl)cc3)N2C1=O"
Result: > 25 µM

Q: Data request, read-out GI50, for "Cc1ccc([N+](=O)[O-])cc1NC(=O)Nc1cccc(F)c1"
Result: 4.02 µM

Q: Data request, read-out GI50, for CCSCC1CC(O)(c2ccccc2)C(c2ccccc2)C(c2ccc(Cl)cc2)O1 (stereo not given)
Result: 1.82 µM

====

system: DLD-1 colon; assay: NCI tumour cell line growth inhibition, 48 h
metric: TGI

Q: Data request, read-out TGI, for "C=C(CN(C)C)C(=O)c1ccccc1C"
Result: 45.8 µM

Q: Data request, read-out TGI, for "CC(C)(C)NNC(=O)/C(=C/c1ccc([N+](=O)[O-])cc1)NC(=O)c1ccccc1"
Result: > 100 µM

Q: Data request, read-out TGI, for "N/C(=N\N=C/c1ccccc1O)NO"
Result: > 45.6 µM

Q: Data request, read-out TGI, for "O=C1[C@@H]2C(c3ccccc3Br)=NO[C@@H]2C(=O)N1c1ccc(Cc2ccc(N3C(=O)[C@H]4C(c5ccccc5Br)=NO[C@H]4C3=O)cc2)cc1"
Result: > 100 µM

Q: Data request, read-out TGI, for "Cc1ccc(NC(=O)c2cc3cc(N=Nc4ccc(Br)cc4)ccc3oc2=O)cc1"
Result: > 100 µM

Q: Data request, read-out TGI, for "Cc1c2cc[n+](C)cc2c(C)c2c1sc1ccccc12"
Result: 51.2 µM

Q: Data request, read-out TGI, for "O=C[C@@H](CO)O[C@H](C=O)c1c[nH]c(=O)[nH]c1=O"
Result: 493 µM

Q: Data request, read-out TGI, for "O=[N+]([O-])c1nc(-c2ccccn2)[nH]c1[N+](=O)[O-]"
Result: > 100 µM

Q: Data request, read-out TGI, for COc1ccc(C2CC(=O)c3c(O)cc(O)cc3O2)cc1O (centres undefined)
Result: > 100 µM

Ref: PubChem BioAssay (NCI)
